Parameter: binding signal. Scope: all listed entries.
SYSTEM NAME: ΔNp73β (Homo sapiens, UniProt O15350-9 1-450)
Sequence: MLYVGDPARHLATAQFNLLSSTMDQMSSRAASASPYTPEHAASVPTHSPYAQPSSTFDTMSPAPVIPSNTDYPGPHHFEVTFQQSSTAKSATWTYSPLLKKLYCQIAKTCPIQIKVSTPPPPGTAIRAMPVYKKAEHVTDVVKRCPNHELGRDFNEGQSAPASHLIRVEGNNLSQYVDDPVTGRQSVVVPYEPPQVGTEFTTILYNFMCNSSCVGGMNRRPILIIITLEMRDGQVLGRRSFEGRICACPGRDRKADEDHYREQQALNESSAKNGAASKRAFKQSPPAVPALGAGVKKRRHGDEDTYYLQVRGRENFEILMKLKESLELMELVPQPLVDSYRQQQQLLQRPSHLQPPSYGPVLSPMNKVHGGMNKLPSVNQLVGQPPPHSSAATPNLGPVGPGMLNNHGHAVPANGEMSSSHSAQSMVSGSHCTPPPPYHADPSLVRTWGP
MEASUREMENT NOTES: fluorescence anisotropy competition titration; 25 mM sodium phosphate (purification buffer pH 7.2), 225 mM NaCl, 10% v/v glycerol, 5 mM DTT, 0.2 mg/mL BSA, 22 C; low values mean tight binding
EXPERIMENTAL SETUP: protein: recombinant; tags: N-terminal 6xHis-lipoyl-TEV tag, cleaved; chain copies: 4; dsDNA, one strand shown
Form entry: value (delta log10 Kd) — number only.

Below: 2 sequences and their reported binding signal.
{"SEQUENCE INPUT": "CGCGGACTTGTCCGGACATGTCCCGC", "SYSTEM NAME": "ΔNp73β (Homo sapiens, UniProt O15350-9 1-450)", "UNIT OF MEASURE": "delta log10 Kd", "binding signal": 0.36}
{"SEQUENCE INPUT": "CGCGTACATGTCCGGACATGTCCCGC", "SYSTEM NAME": "ΔNp73β (Homo sapiens, UniProt O15350-9 1-450)", "UNIT OF MEASURE": "delta log10 Kd", "binding signal": 0.24}

Qu. Which binding signal reading was recorded for the sequence `CGCGGACATTTCCGGACATGTCCCGC` ?
Ans. 1.43

Qu. // query: `CGCGGACATGACCGGACATGTCCCGC`
Ans. 0.78

Qu. // query: `CGCGGACAAGTCCGGACATGTCCCGC`
Ans. 0.12

====

SYSTEM NAME: Drp53 (Danio rerio, UniProt P79734 1-373)
Sequence: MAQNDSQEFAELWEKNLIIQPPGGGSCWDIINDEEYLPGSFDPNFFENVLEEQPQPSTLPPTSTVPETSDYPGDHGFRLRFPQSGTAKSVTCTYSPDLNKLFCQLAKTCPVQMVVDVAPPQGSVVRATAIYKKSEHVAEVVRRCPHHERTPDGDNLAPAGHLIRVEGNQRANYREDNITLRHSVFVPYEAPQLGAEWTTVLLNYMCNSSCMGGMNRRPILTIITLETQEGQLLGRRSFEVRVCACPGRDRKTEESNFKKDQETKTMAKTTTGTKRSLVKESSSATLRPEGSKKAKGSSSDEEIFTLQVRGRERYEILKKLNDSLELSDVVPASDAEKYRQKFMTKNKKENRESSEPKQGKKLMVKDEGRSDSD
MEASUREMENT NOTES: fluorescence anisotropy competition titration; 25 mM sodium phosphate (purification buffer pH 7.2), 225 mM NaCl, 10% v/v glycerol, 5 mM DTT, 0.2 mg/mL BSA, 22 C; low values mean tight binding
EXPERIMENTAL SETUP: protein: recombinant; tags: N-terminal 6xHis-lipoyl-TEV tag, cleaved; chain copies: 4; dsDNA, one strand shown
READOUT KIND: binding signal (delta log10 Kd)
Form entry: value (delta log10 Kd) — number only.

Below: 3 sequences and their reported binding signal.
{"SEQUENCE INPUT": "CGCGGAAATGTCCGGACATGTCCCGC", "binding signal (delta log10 Kd)": 1.13}
{"SEQUENCE INPUT": "CGCGCACATGTCCGGACATGTCCCGC", "binding signal (delta log10 Kd)": 0.41}
{"SEQUENCE INPUT": "CGCGGACATGTCGGGACATGTCCCGC", "binding signal (delta log10 Kd)": 0.19}

Qu. Which binding signal reading was recorded for the sequence `CGCGGGCATGTCCGGACATGTCCCGC` ?
Ans. 0
